Numbers sourced from PubChem BioAssay (NCI).

- Tested on: SF-268 CNS
- TEST DETAILS: NCI tumour cell line growth inhibition, 48 h
Each record here notes measured TGI.

| MOLECULE | TGI |
| --- | --- |
| O=C1c2ccc3c4c(ccc(c24)C(=O)N1CCCCO)C(=O)N(CCCCO)C3=O | 11.5 µM |
| CC1CCc2c(C(=O)Nc3ncc(Cc4cccc([N+](=O)[O-])c4)s3)csc2C1 (stereo unspecified) | > 100 µM |
| CC/C(CC(=O)CCC(=O)Nc1ccc(C)c(C)c1)=N\NC(=O)c1cc2ccccc2cc1O | > 100 µM |
| CSCSCC(CO)NC(=O)/C=C/c1c(C)[nH]c(=O)[nH]c1=O (stereo unspecified) | > 100 µM |
| Cc1ccc2c(c1)CC1(Cc3cc(C)ccc3C1=O)C2=O | > 100 µM |
| CCn1c(=O)c2nc(SC)sc2n(-c2ccccc2)c1=S | > 100 µM |
| Nc1nc(SCC#CCCl)c2[nH]cnc2n1 | 18.6 µM |
| ClC/C=C/CSc1ncnc2nc[nH]c12 | > 100 µM |
| O=C(OC1C#CCSCC#C/C=C\1)c1ccc2c(c1)C(=O)c1ccccc1C2=O (stereo unspecified) | 69.1 µM |
| CC(C)(C)n1cc(-c2ccnc(NCCCNS(=O)(=O)c3cccc4ccccc34)c2)c(-c2cccc(O)c2)n1 | 8.02 µM |
| O=C1OCOC2(CCCC2)C1c1ccccc1 (stereo unspecified) | > 100 µM |
| COc1cc(/C=N\Nc2ccccc2)ccc1OC(=O)c1ccccc1 | > 100 µM |
| NP1(Oc2ccc(F)cc2)=NP(N)(Oc2ccc(F)cc2)=NP(Oc2ccc(F)cc2)(Oc2ccc(F)cc2)=N1 (stereo unspecified) | 26.7 µM |
| CCOc1c2c(cc3c1C(=O)c1c(OC)cccc1C3=O)C=C(OC)CC2 | > 25 µM |
| Cc1n[nH]c(=O)c2c3c([nH]c12)-c1ccccc1C3 | > 100 µM |
| Cc1csc(NCc2ccc(Cl)cc2)n1 | > 100 µM |
| Clc1ccc(Cc2nc3cc4ccccc4cc3[nH]2)cc1Cl | 62.7 µM |
| O=C1N[C@@H]([C@H]2CC[C@H](Cl)CN2)C(=O)N[C@H]1[C@H]1CC[C@H](Cl)CN1 | 51.5 µM |
| COc1cc2c(cc1C)NC(=O)/C2=C/c1c(Cl)[nH]c2ccccc12 | 17.7 µM |
| CC(=O)O[C@H]1CSC[C@@H](OC(C)=O)C1[N+](=O)[O-] (stereo partly specified) | > 100 µM |
| COc1cccc(/C=C\C(=O)c2ccccc2)c1 | 28.9 µM |
| Cc1cnc(C(=O)Nc2nc3ccc(S(=O)(=O)Nc4ccc(C(C)(C)C)cc4)cc3[nH]2)cn1 | 13.6 µM |
| CC1=C(C(=S)Nc2ccc(Cl)c(C(=O)OC(C)C)c2)SCCO1 | 60.8 µM |
| N#C/C(=C/c1ccc([N+](=O)[O-])o1)c1ccccc1 | > 100 µM |
| C[N+]1(CC[N+]2(C)CCCC2c2cccnc2)CCCC1c1cccnc1 (stereo unspecified) | > 100 µM |
| O=C1c2cccc3cc([N+](=O)[O-])cc(c23)C(=O)N1c1ccc(OCCN2CCCC2)cc1 | > 100 µM |
| CN1N=C(c2ccncc2)OC1c1ccc(C(F)(F)F)cc1 (stereo unspecified) | > 100 µM |
| N#Cc1ccc2c(-c3ccnc(NC4CC4)n3)c(-c3ccc(F)cc3)nn2c1 | > 25 µM |
| CC(C)C1OC(=O)C(Cc2ccccc2)N(C)C(=O)C(C(C)C)OC(=O)C(Cc2ccccc2)N(C)C(=O)C(C(C)C)OC(=O)C(Cc2ccccc2)N(C)C1=O (stereo unspecified) | 3.2 µM |
| O=C(Cn1c(=O)oc2ccccc21)N(c1ccccc1)c1ccccc1 | > 100 µM |
| O=C1OCc2nc3c(c(-c4ccccc4C(F)(F)F)c21)C(=O)OC3 | > 100 µM |
| COc1ccc([C@@H]2[C@@H](Cl)C(=O)N2c2cc(OC)c(OC)c(OC)c2)cc1C | 25 µM |
| CCOC(=O)c1c(NS(=O)(=O)c2ccccc2)sc2c1CCCC2 | > 100 µM |
| O=C(CC1(O)C(=O)Nc2ccc(Cl)cc21)c1ccc(C(=O)NCC2CCC3(CC2)OOC2(CCCCC2)OO3)cc1 (stereo unspecified) | 12.9 µM |
| O=C(CC1(O)C(=O)Nc2ccccc21)c1cccc(O)c1 (stereo unspecified) | > 100 µM |
| C(=C\c1ccc2ccccc2c1Nc1ccccc1)/c1ccccc1 | > 100 µM |
| O=C1c2c(c3c4ccccc4n(CC4CO4)c3c3[nH]c4ccccc4c23)C(=O)N1Cc1ccccc1 (stereo unspecified) | > 100 µM |
| C=CCSC1=N/C(=C\c2ccc(C)cc2)C(=O)N1CC=C | > 100 µM |
| COC(=O)C(=O)C(C(=O)C(=O)Nc1cc(C)ccc1C)c1nc2ccccc2[nH]c1=O (stereo unspecified) | > 100 µM |
| CCc1ccc([OH2+])c(C(=O)[O-])c1.CCc1ccc([OH2+])c(C(=O)[O-])c1.CCc1ccc([OH2+])c(C(=O)[O-])c1.CCc1ccc([OH2+])c(C(=O)[O-])c1.[Cu+2].[Cu+2] | > 100 µM |
| CN(C)NC(=O)NC12CC3CC(CC(C3)C1)C2 | > 100 µM |

----------
Each record here notes measured GI50.
- Tested on: MOLT-4 leukemia
- TEST DETAILS: NCI tumour cell line growth inhibition, 48 h
RESULT TYPE: GI50

| STRUCTURE STRING | READOUT VALUE |
| --- | --- |
| CCCCCCCCCC(=O)Oc1ccc(/C(=C(/C)c2ccccc2)c2ccc(OCCN3CCCC3)cc2)cc1 | 8.61 µM |
| Cc1ccc(C)c(N2CCN(c3ccncc3N)CC2)c1 | 25.6 µM |
| N#Cc1ccc2c(-c3ccnc(NC4CC4)n3)c(-c3ccc(F)cc3)nn2c1 | > 25 µM |
| COc1cccc(/C=C\C(=O)c2ccccc2)c1 | 6.1 µM |
| O=C(/C=C/c1ccco1)Nc1ncc(Cc2cc(Cl)ccc2Cl)s1 | 0.061 µM |
| c1c2c(cc3c1OCO3)-c1ncc3cc4c(cc3c1C2)OCO4 | 0.0147 µM |

----------
- System: CCRF-CEM leukemia
- TEST DETAILS: NCI tumour cell line growth inhibition, 48 h; in the data active = GI50 below about 0.43 µM; inactive = the rest
Classes used: active, inactive

| MOLECULE | ASSIGNED CLASS |
| --- | --- |
| COc1cc2c(cc1O)CCN[C@@]21CS[C@H]2c3c(OC(C)=O)c(C)c4c(c3C(COC1=O)N1C2C2NC(Cc3cc(C)c(OC)c(O)c32)[C@@H]1O)OCO4 (some centres not stated) | inactive |
| ClC/C=C/CSc1ncnc2nc[nH]c12 | inactive |
| CC[C@H](C)[C@H](NC(=O)CN(C)C)C(=O)N(C)[C@H](C[C@@H](OC(C)=O)c1nc(C(=O)NC23C4C5C2C2C3C4C52C(=O)OC)cs1)C(C)C (some centres not stated) | active |
| CSc1ccc(-c2cn3ccsc3n2)cc1 | inactive |
| COc1ccc([C@@H]2[C@@H](Cl)C(=O)N2c2cc(OC)c(OC)c(OC)c2)cc1C | active |
| N#Cc1ccc2c(-c3ccnc(NC4CC4)n3)c(-c3ccc(F)cc3)nn2c1 | inactive |
| Cc1c2ccncc2c(C)c2c1[nH]c1ccc(O)cc12 | inactive |

----------
- Tested on: LXFL 529 NSCLC
- TEST DETAILS: NCI tumour cell line growth inhibition, 48 h

| COMPOUND | TGI |
| --- | --- |
| CNC(=O)OC1/C(C)=C\C(C)C(O)C(OC)CC(C)CC2=C(OC)C(=O)C=C(C2=O)N(C)C(=O)/C(C)=C/C=C\C1OC (stereo not drawn) | 19.6 µM |
| CCOC(=O)C(Oc1ccc(OC)c2c1C(=O)CCC2)c1ccccc1 (stereo not drawn) | > 100 µM |
| Nc1nc(N)c(CCCCc2ccc([N+](=O)[O-])cc2)c(N)n1 | > 100 µM |
| COc1cc([C@@H]2c3cc4c(cc3[C@@H](OC3OC5COC(C)OC5C(O)C3O)[C@H]3COC(=O)[C@H]23)OCO4)cc(OC)c1O (stereo partly drawn) | 218 µM |
| CC(C)(c1ccc(C=O)o1)c1ccc(C(C)(C)c2ccc(C=O)o2)o1 | > 100 µM |
| N#Cc1c(N)oc2cc3c(C#N)c(N)oc3cc12 | > 100 µM |
| NN=C1/C(=C\c2ccccc2)CCC/C1=C/c1ccccc1 | > 100 µM |
| CC(=O)OC1COC(N2C(=O)C(=O)c3ccccc32)C(OC(C)=O)C1OC(C)=O (stereo not drawn) | > 100 µM |
| C=C1C(C)C2C(Cc3ccccc3)NC(=O)C23C(OC(C)=O)C=CC(C)(O)C(=O)C(C)C/C=C/C3C1O (stereo not drawn) | 96.4 µM |
| CCN(CC)c1ccc(N=Nc2ccc(-c3nc4cccnc4s3)cc2)cc1 | > 100 µM |
| CCOC(=O)C(=O)CC(=O)C(Br)C(Br)c1ccc(Cl)cc1 (stereo not drawn) | 31.9 µM |
| COC1=CC(=O)[C@@]2(C)C(C)[C@H](c3ccccc3)[C@H]2C1=O (stereo partly drawn) | > 100 µM |
| CSCSCC(CO)NC(=O)/C=C/c1c(C)[nH]c(=O)[nH]c1=O (stereo not drawn) | > 100 µM |
